# measurement_description: VP16 transactivation inhibitors, counter-screen for SRC1 inhibitor project, cell-based, luminescence, high throughput (AID 588824)
# condition_details: cell-based VP16 transactivation luciferase luminescence; at 3.6 µM; active compounds read high
Kindly state inhibition for each of the entries shown.
Numeric only. Scale: %

Lab book: inhibition of "COc1ccc2ncn(-c3ccccc3)c2c1" noted as 23.7

inhibition reported for this compound "Cc1nc(SCC(=O)Nc2nc3ccccc3s2)c(C#N)c(C)c1C" : 83.2

Field inhibition (entry "COc1ccc(C(=O)NCCN(C)C)c2nc3ccccc3cc12" ) reads 39.4

Quick note, inhibition for "COc1ccc(NC(=O)CN(C)C(=O)c2ccc(N3CCCCC3)c([N+](=O)[O-])c2)cc1" landed at -5.37

According to the records, this compound "COc1ccc(Cc2nnc(SCC(=O)Nc3ccc(C)c(Cl)c3)[nH]c2=O)cc1" displays inhibition of 7.22

Value of measured inhibition for the entry "CC(=NNc1nc2ccccc2o1)c1cc2ccccc2cn1" : 86.3

Recorded inhibition (compound "CCOC(=O)N1CCc2c(sc(NC(=O)CN3CCOCC3)c2C(=O)Nc2ccccc2)C1" ): -5.16

Measured inhibition of "COc1ccc(NC(=O)c2cc(-c3cc(Cl)ccc3OC)n[nH]2)cc1OC" : 44

Measured inhibition, "O=C1NC2(CCN(Cc3ccccc3)CC2)Oc2ccccc21" : -3.3

Notebook: O=C(OC(c1ccccc1)c1nccc2ccccc12)c1ccccc1 (stereo not given) , inhibition read as 21.7

What the record says about CCN(CC(=O)Nc1ccccc1C(F)(F)F)C(=O)c1ccc2[nH]c3c(c2c1)CC(C)CC3 (stereo not given) : inhibition is -8.04

response.value for "O=C(NCc1cccc(C(F)(F)F)c1)c1csc([C@@H]2O[C@H](CO)[C@H](O)[C@H](O)[C@H]2O)n1" (field: inhibition) = -4.13

Value of inhibition reported for the compound "Cc1ccc(-n2c(O)c(C=Nc3cc(C)on3)c3ccccc3c2=O)c(C)c1" is 35.7

// "COc1ccc(C[C@H](N)C(=O)N[C@H]2[C@@H](O)[C@H](n3cnc4c(N(C)C)ncnc43)O[C@@H]2CO)cc1" : inhibition value = 91.8

Please fill in: inhibition reported for "CC(=O)N1CCN(c2ccc(Oc3ncnc4sccc34)cc2)CC1" = 16.9

Reported inhibition of "Cc1ccc(S(=O)(=O)NNC2=NS(=O)(=O)c3ccccc32)c(C)c1" : -7.56

Entry CCCCC(=O)NC(c1ccc(N(CC)CC)cc1)c1ccc2cccnc2c1O (stereo not given) — recorded inhibition = 63.8

Lab book: inhibition of "O=C(NC(Nc1nc2ccc([N+](=O)[O-])cc2s1)(C(F)(F)F)C(F)(F)F)c1ccccc1" noted as 84.3

Lookup result for Cc1cc(C(=O)CN2C(=O)c3ccccc3S2(=O)=O)c(C)n1CC1CCCO1 (stereo not given) ; measured inhibition: 60

// field: inhibition; key: "Cc1ccccc1CN1CCC(Oc2ccc(C(=O)NCc3ccccn3)cc2)CC1" ; value = 8.1

Just so you know, measured inhibition for "Cc1ccc(S(=O)(=O)N(C)c2ccc(C(=O)Nc3ccccc3C(=O)N3CCOCC3)cc2)cc1" came out at -3.41

Per the records, this compound ( "Cc1c(C)c2cccnc2c2ncccc12" ) has inhibition equal to 65.7

# inhibition of "CCCCCn1c2c(c(=N)c3ccccc31)CCC2" = 60

// recorded inhibition for "COc1ccc(Cl)cc1NC(=O)CN(C)C(=O)c1ccc(COc2ccccc2)cc1" : -12.9

// field: inhibition; key: "Cc1ccc(C)c(NC(=O)CCc2ccc(C)o2)c1" ; value = -2.65

Per the record, CC1(C)CC2CC(C)(CN2S(=O)(=O)c2ccc(C(=O)Nc3ccc(S(=O)(=O)N4CCOCC4)cc3)cc2)C1 (stereo not given) has inhibition of 44.1

For record "O=C(NCc1cccnc1)/C(=C\c1ccc(-c2ccc(Br)cc2)o1)S(=O)(=O)c1ccccc1" the listed inhibition is 55.1

Data point: "C#CCN(C[C@@H]1[C@@H](OC(=O)NCCCCCC)[C@@H](OC(=O)NCCCCCC)Cn2c(=O)ccc(=O)n21)S(=O)(=O)c1ccc(C)cc1" ; inhibition = 33.4

Lookup result for "c1ccc(-c2noc(-c3ccc4c(c3)OCO4)n2)nc1" ; measured inhibition: 33.7

# compound "COc1ccc(NC(=O)COc2ccccc2Cc2ccccc2)cc1S(N)(=O)=O" ; its inhibition = 32.3

// sample "Cc1nn(-c2ccccc2)c(N2CCCC2)c1/C=N/NC(=O)c1cc(-c2cccnc2)nc2ccccc12" , its inhibition was -7.83

Record "CC1CCN(c2ccc(-c3cccc(NC(=O)C(F)(F)F)c3)nn2)CC1" , field inhibition: -29.6

Per the record, O=C(NC1CCCC1)C(c1ccccc1)N(Cc1ccco1)C(=O)Cc1cccs1 (stereo not given) has inhibition of 31.5

The compound CCCC(=O)NC(c1ccc(Cl)cc1)c1ccc2cccnc2c1O (stereo not given) showed inhibition equal to 40.2

Memo: COc1cccc2c1C(=O)c1c(O)c3c(c(O)c1C2=O)C[C@@](O)(C(=O)CO)C[C@@H]3OC1CC(N)C(O)C(C)O1 (stereo not given in full) , reported inhibition: 71.4

inhibition for COC(=O)c1ccc(C(=O)N2CCCC(Nc3ccc(F)c(F)c3)C2)cc1 (stereo not given) is -10.7

inhibition in this record for "O=C(NC(Nc1nc2ccc([N+](=O)[O-])cc2s1)(C(F)(F)F)C(F)(F)F)c1ccccc1Cl" : 86

Measured inhibition of "N#Cc1c(NC(=O)CSc2ncn[nH]2)sc2c1CCCCC2" : 59

The compound listed as "CN(Cc1ccc(OC(F)F)cc1)C(=O)c1cccc(S(=O)(=O)N2CCN(Cc3ccccc3)CC2)c1" shows inhibition equal to 35

Query "COC(=O)c1ccc2nc(Nc3nc4ccc(F)cc4s3)sc2c1" yields inhibition of -19.9
